Parameter SRE, relative intensity ratio: see the listing below.
# Tested on: SRE
# Method: siRNA transfection array, SRE EGFP reporter, HepG2 cells
# Assay type: cell-based, human
# Condition Context: EGFP intensity relative to Scramble II Duplex negative control (100%)
# Experimental: Functional reporters for transcriptional factors and fibronectin described in Table 2 were used to synthesize siRNAs for the transcriptional factors including SRE, TRE, E2F, p53, Rb, Actin, NFAT, NFkB, STAT3, RARE, PMA, ISRA, HSE, Myc, AP1, GAS, ERE, GRE and CRE. siRNA for EGFP was used as a control. Each siRNA was evaluated as to whether or not it knocks out a target transcription factor. Scrambled RNAs were used as negative controls, and their ratios were evaluated. […]

# count of solved cases: 3
RARB2 siRNA: siRNA SEQ ID NO: 67 (Dharmacon), targets human RARB transcript variant 2 NM_016152 (GACGGCCUUACCCUAAAUC; chemistry not given here) yielded SRE, relative intensity ratio of 55.8%

RARB1 siRNA: siRNA SEQ ID NO: 66 (Dharmacon), targets human RARB transcript variant 1 NM_000965 (GUGAACUGGCCACCAAGUG; chemistry not given here) yielded SRE, relative intensity ratio of 38.4%

TR siRNA: siRNA SEQ ID NO: 75 (Dharmacon), targets human thyroid hormone receptor Y00479 (CCUCCAUCCCACCUAUUCC; chemistry not given here) yielded SRE, relative intensity ratio of 26.5%

More entries:
GR siRNA: siRNA SEQ ID NO: 58 (Dharmacon), targets human glucocorticoid receptor alpha M10901 (CUCGAAUGAGGACUGCAAG; chemistry not given here) yielded SRE, relative intensity ratio of 55.7%

###

# Test system: ISRE
# Method: siRNA transfection array, ISRE EGFP reporter, HepG2 cells
# Type: cell-based, human
# Condition Context: ISRE reporter, 48 h culture
Assay Metric: Relative intensity ratio of EGFP fluorescence against Scramble II Duplex, ISRE (%)
I only need the number, in %, no unit after it.

RARA siRNA: siRNA SEQ ID NO: 65 (Dharmacon), targets human retinoic acid receptor alpha NM_000964 (GUACUGCCGACUGCAGAAG; chemistry not given here) yielded Relative intensity ratio of EGFP fluorescence against Scramble II Duplex, ISRE of 104.2

GR siRNA: siRNA SEQ ID NO: 58 (Dharmacon), targets human glucocorticoid receptor alpha M10901 (CUCGAAUGAGGACUGCAAG; chemistry not given here) yielded Relative intensity ratio of EGFP fluorescence against Scramble II Duplex, ISRE of 75.0

p53 siRNA: siRNA SEQ ID NO: 76 (Dharmacon), targets human p53 AF307851 (GACUCCAGUGGUAAUCUAC; chemistry not given here) yielded Relative intensity ratio of EGFP fluorescence against Scramble II Duplex, ISRE of 63.6

###

# Test system: P53
# Method: siRNA transfection array, p53 EGFP reporter, HepG2 cells
# Format: cell-based, human
# Condition Context: EGFP intensity relative to Scramble II Duplex negative control (100%)
Assay Metric: P53, relative intensity ratio (%)
I only need the number, in %, no unit after it.

HSF-2 siRNA: siRNA SEQ ID NO: 60 (Dharmacon), targets human HSF2 M65217 (GUUCCACACAGUAGGACUG; chemistry not given here) yielded P53, relative intensity ratio of 54.9

HSF-1 siRNA: siRNA SEQ ID NO: 59 (Dharmacon), targets human HSF1 NM_005526 (GGAGUGCAUGGACUCCAAG; chemistry not given here) yielded P53, relative intensity ratio of 68.8
